Reported MFI HisTag FITC in EGFR+ Population values are given for each entry in this list.
# TARGET OR SYSTEM: T1, nfP2X7 CAR 1
# T1 construct: Expressed on T cells with truncated EGFR as marker gene; also called anti-nfP2X7 receptor CAR 1; nfP2X7 targeted CAR on EGFR+ T cells
# EXPERIMENTAL PROTOCOL: flow cytometry, nfP2X7 CAR T cells (EGFR+), anti-His-FITC detection
Could you respond with only the numeric value?

- BINDER: "CD33 BRIDGE variant B7 (Fab, V domains shown, Lintuzumab-based Fab bridging molecule) VH: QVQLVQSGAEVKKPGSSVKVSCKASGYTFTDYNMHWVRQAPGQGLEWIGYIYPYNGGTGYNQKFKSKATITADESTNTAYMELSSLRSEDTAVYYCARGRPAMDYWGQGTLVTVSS VL: DIQMTQSPSSLSASVGDRVTITCRASESVDNYGISFMNWFQQKPGKAPKLLIYAASNQGSGVPSRFSGSGSGTDFTLTISSLQPDDFATYYCQQSKEVPWTFGQGTKVEIKR"
  MFI HisTag FITC in EGFR+ Population: 1.45

Endpoint output: MFI HisTag FITC in EGFR+ Population of CD33 BRIDGE variant B9 (Fab, V domains shown, Lintuzumab-based Fab bridging molecule) VH: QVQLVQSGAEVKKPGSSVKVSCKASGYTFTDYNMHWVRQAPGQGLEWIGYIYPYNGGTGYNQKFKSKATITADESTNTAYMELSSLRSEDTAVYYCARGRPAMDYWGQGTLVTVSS VL: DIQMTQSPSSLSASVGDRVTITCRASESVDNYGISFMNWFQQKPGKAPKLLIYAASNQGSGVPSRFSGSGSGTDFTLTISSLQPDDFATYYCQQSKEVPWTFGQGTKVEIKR . Value?
1.16

Endpoint output: MFI HisTag FITC in EGFR+ Population of CD33 BRIDGE variant B2 (Fab, V domains shown, Lintuzumab-based Fab bridging molecule) VH: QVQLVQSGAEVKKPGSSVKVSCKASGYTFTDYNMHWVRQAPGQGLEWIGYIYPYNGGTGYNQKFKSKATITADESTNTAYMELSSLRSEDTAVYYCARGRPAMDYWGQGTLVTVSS VL: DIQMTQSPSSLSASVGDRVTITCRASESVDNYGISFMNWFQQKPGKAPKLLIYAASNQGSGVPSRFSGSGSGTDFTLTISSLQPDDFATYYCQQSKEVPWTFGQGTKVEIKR . Value?
1.11

Hello, the source for this data is patent US20250281611A1, in case you need it.
